# Assayed system: T1, human GIP receptor (human, UniProt P48546 22-466)
# T1 sequence (looked up): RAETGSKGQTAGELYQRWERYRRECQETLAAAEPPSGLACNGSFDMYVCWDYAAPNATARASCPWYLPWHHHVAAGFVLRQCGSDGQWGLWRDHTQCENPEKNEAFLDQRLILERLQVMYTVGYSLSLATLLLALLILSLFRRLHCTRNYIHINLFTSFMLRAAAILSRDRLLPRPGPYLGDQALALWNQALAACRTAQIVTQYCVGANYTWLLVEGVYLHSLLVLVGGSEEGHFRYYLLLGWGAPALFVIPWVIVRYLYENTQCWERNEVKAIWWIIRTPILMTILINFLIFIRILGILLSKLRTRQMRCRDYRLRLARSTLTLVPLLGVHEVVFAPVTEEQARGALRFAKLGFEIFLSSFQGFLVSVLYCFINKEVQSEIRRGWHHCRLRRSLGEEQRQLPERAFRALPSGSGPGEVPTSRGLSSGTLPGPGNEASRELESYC
# Assay info: cell-based or functional assay
Ends that are not written are not given here.
Assay metric: cAMP EC50 (nM)

Binder	Units	Recorded value
IP372 (Fc fusion) YSEGTFTSDYSIYLDEEAVRLFIEWLLAGGGGGGGSGGGGSGGGGSGGGGSACPPC	nM	0.05
IP300 (Fc fusion) YSEGTFTSDYSKLLEEEAVRLFIEWLLAGAPPGGGGGGGGGGGGGGGGGGGGGACPPC	nM	0.013
IP264 (Fc fusion) YSEGTFTSDYSKLLEEEAVRLFIEWLVKGKGGGGGSGGGGSGGGGSGGGGSATHTCPPCPAPEF	nM	0.017
IP279 (Fc fusion) YSEGTFTSDYSKLLEEEAVRLFIEWLVKGPSSGAPPPSGGGGGSGGGGSGGGGSGGGGSATHTCPPC	nM	0.01
IP212 (Fc fusion) YSEGTFTSDYSKLLEEEAVREFIAWLVKGPAAAGGSGSTASSGSGSATGGGGAATHTCPPCPAPEF	nM	0.0081
IP403 (Fc fusion) YSEGTHTSDLRILLEEEAVRLFIEKLLAGGGSGGGGSGGGGSGGGGSGGGGSGGGGSGGGGSGGGGSACPPC	nM	16
IP260 (Fc fusion) YSEGTFTSDYSKLLEEEAVQLFIEWLVKGPGGGGGSGGGGSGGGGSGGGGSATHTCPPCPAPEF	nM	0.033
YSEGTFTSDYSKLLEEEAVRLFIEWLVKGPGGGGGGGATHTCPPC (Fc fusion) [IP283]	nM	0.049
IP358 (Fc fusion) YSEGTFTSDFSKLLEEEAVRLFIEWLLAGGGGGGSGGGGSGGGGSGGGGSATHTCPPC	nM	0.0094
IP361 (Fc fusion) YSEGTFTSDYRILKEEEAVRLFIEWLLAGGGGGGSGGGGSGGGGSGGGGSATHTCPPC	nM	0.082
IP149 (Fc fusion) YSQGTFTSDYSKLLEEEAVRLFIEWLVKGPAPPGGSGSTASSGSGSATGGGGAATHTCPPCPAPEF	nM	0.0081
IP237 (Fc fusion) YSEGTFTSDYSKLLEEEAVRLFIEWLVKGPGGGGGSGGGGSGGGGSGGGGSATHTCPPCPAPEF	nM	0.012
IP370 (Fc fusion) YSEGTFTSLYSKLKEEEAVRLFIEWLLAGGGGGGSGGGGSGGGGSGGGGSATHTCPPC	nM	0.19
IP236 (Fc fusion, cysteine pairing not given here; also: fused to IgG1-TM Fc) YSEGTFTSDYSKLLEEEAVRLFIEWLVKGPGGGGGSGGGGSGGGGSATHTCPPCPAPEF	nM	0.016
IP298 (Fc fusion) YSEGTFTSDVSSYLERQAIDEFIAWLLKGGAAAGGSGSTASSGSGSATGGGGAATHTCPPC	nM	0.14
